cytotoxicity log GI50 reference
System: NCI-H460
Protocol summary: in vitro non-small cell lung cancer cell growth inhibition (NCI screen)
Response body: numeric value in M, unit text excluded.

Consider the worked cases shown below.
>>> measured_result("Cc1nc2c(n1C(C)(C)C)C(=O)c1ccccc1C2=O")
-4.44
>>> measured_result("O=C1c2ccccc2C(=O)c2[nH]c(Cc3ccccc3F)nc21")
-4.47
>>> measured_result("Cc1nc2c(n1CCN(C)C)C(=O)c1ccccc1C2=O")
-5.01

stdin: Lookup: cytotoxicity log GI50 / NCI-H460 / Cc1ccc(Cn2c(C)nc3c2C(=O)c2ccccc2C3=O)cc1
stdout: -6.41

stdin: Lookup: cytotoxicity log GI50 / NCI-H460 / O=C(O)CCc1nc2c(n1Cc1ccccc1)C(=O)c1ccccc1C2=O
stdout: -4.42

###

Tested on: SNB-75
Protocol summary: in vitro CNS cancer cell growth inhibition (NCI screen)
Measured property: cytotoxicity log GI50 (M)
Response body: numeric value in M, unit text excluded.

>>> measured_result("NC1=C(NC(=O)Cc2ccc(F)cc2)C(=O)c2ccccc2C1=O")
-4.49
>>> measured_result("CCc1nc2c(n1CC)C(=O)c1ccccc1C2=O")
-4.68
>>> measured_result("CCC(CC)n1c(C)nc2c1C(=O)c1ccccc1C2=O")
-4.69
>>> measured_result("NC1=C(NC(=O)Cc2ccccc2F)C(=O)c2ccccc2C1=O")
-4.73
>>> measured_result("CC(=O)NC1=C(NCC(C)C)C(=O)c2ccccc2C1=O")
-4.77
>>> measured_result("CCn1c(Cc2ccc(F)cc2)nc2c1C(=O)c1ccccc1C2=O")
-4.80
>>> measured_result("Cc1nc2c(n1C(C)(C)C)C(=O)c1ccccc1C2=O")
-4.50
>>> measured_result("CCC(c1ccccc1F)c1nc2c(n1CC)C(=O)c1ccccc1C2=O (centres unmarked)")
-4.60

stdin: What does the record list as cytotoxicity log GI50 for CC(=O)NC1=C(NCCCl)C(=O)c2ccccc2C1=O ?
stdout: -4.61

stdin: What does the record list as cytotoxicity log GI50 for O=C(Cc1ccccc1F)NC1=C(Cl)C(=O)c2ccccc2C1=O ?
stdout: -6.33

stdin: What does the record list as cytotoxicity log GI50 for Cc1nc2c(n1CCCl)C(=O)c1ccccc1C2=O ?
stdout: -4.84

###

Tested on: NCI-H460
Protocol summary: in vitro non-small cell lung cancer cell growth inhibition (NCI screen)
Decision: cytotoxicity log GI50 >= -5 M yields class 1, all other cases yield class 0.

stdin: Dear colleague, could you confirm whether CCCC(C)n1c(C)nc2c1C(=O)c1ccccc1C2=O (stereo not shown) [Compound 9] has cytotoxicity log GI50 at or above -5 M?
stdout: class 0

###

Tested on: TK-10
Protocol summary: in vitro renal cancer cell growth inhibition (NCI screen)
Measured property: cytotoxicity log GI50 (M)
Response body: numeric value in M, unit text excluded.

Consider the worked cases shown below.
>>> measured_result("CC(=O)NC1=C(NCC(C)C)C(=O)c2ccccc2C1=O")
-4.68
>>> measured_result("O=C1c2ccccc2C(=O)c2[nH]c(Cc3ccccc3F)nc21")
-4.53
>>> measured_result("CCNC1=C(NC(=O)CCl)C(=O)c2ccccc2C1=O")
-4.75
>>> measured_result("CCC(c1ccccc1F)c1nc2c(n1CC)C(=O)c1ccccc1C2=O (centres unmarked)")
-5.49
>>> measured_result("NC1=C(NC(=O)Cc2ccc(F)cc2)C(=O)c2ccccc2C1=O")
-4.57
>>> measured_result("CCc1nc2c(n1CC)C(=O)c1ccccc1C2=O")
-4.66
>>> measured_result("O=C(NC1=C(Cl)C(=O)c2ccccc2C1=O)c1ccccc1")
-4.64

stdin: What does the record list as cytotoxicity log GI50 for O=C(O)CCc1nc2c(n1Cc1ccccc1)C(=O)c1ccccc1C2=O ?
stdout: -4.47

Hello, the source for this data is patent US5789431A, in case you need it.
